Assay type: in vivo, human
Details: both, human, urine and plasma, oral, 15 mg
Quantity Kind: CL renal (mL/min)
Give the number; mL/min is assumed, so skip it.

Req: Look up CL renal for this molecule: CC[C@@H]1CN(C(=O)NCC(F)(F)F)C[C@@H]1c1cnc2cnc3[nH]ccc3n12 [Upadacitinib]
Resp: 32.7
